Hello, the source for this data is patent US11453711B2, in case you need it.

experimental.details: Body weight and food intake in C57BL/6 mice, fusion protein conjugates, 30 nmol/kg daily 10 days
Assay type: in vivo
Some molecules, each annotated with its measured Cumulative food intake reduction at 30 nmol/kg (% reduction compared to vehicle)(Day11).
Please state the figure in %; there is no need to write the unit.

Previously resolved entries follow.
MLC092: fusion polypeptide SEQ ID NO: 380 conjugated with Moiety C at 35C of Linker (conjugate, Moiety C conjugated at linker Cys35) HGEGTFTSDVSSYLEEQAAKEFIAWLVRGGGGAQPGAQPGAQPGAQPGAQPGAQPGAQPGAQPGQCPGAQPGQEPGAQPGQEPGAQPGQEPGAQPGQEPGAQPGQEPGAQPARQGDHCPLGPGRCCRLHTVRASLEDLGWADWVLSPREVQVTMCIGACPSQFRAANLHAQIKTSLHRLKPDTVPAPCCVPASYNPMVLIQKTDTGVSLQTYDDLLAKDCHCI ... 33.9
MLC012: fusion polypeptide SEQ ID NO: 259 conjugated with Moiety A at 12K of Linker (conjugate, Moiety A conjugated at linker K12) HGEGTFTSDVSSYLEEQAAREFIAWLVRGGGGQEPGQEPGQEKGQEPGQEPGQEPGQEPGQEPGQEPGQEPARQGDHCPLGPGRCCRLHTVRASLEDLGWADWVLSPREVQVTMCIGACPSQFRAANLHAQIKTSLHRLRPDTVPAPCCVPASYNPMVLIQRTDTGVSLQTYDDLLARDCHCI ... 37.2
MLC090: fusion polypeptide SEQ ID NO: 379 conjugated with Moiety C at 39C of Linker (conjugate, Moiety C conjugated at linker Cys39) HGEGTFTSDVSSYLEEQAAKEFIAWLVRGGGGAQPGAQPGAQPGAQPGAQPGAQPGAQPGAQPGQEPGQCPGQEPGAQPGQEPGAQPGQEPGAQPGQEPGAQPGQEPGAQPARQGDHCPLGPGRCCRLHTVRASLEDLGWADWVLSPREVQVTMCIGACPSQFRAANLHAQIKTSLHRLKPDTVPAPCCVPASYNPMVLIQKTDTGVSLQTYDDLLAKDCHCI ... 44.4

The record that follows has no Cumulative food intake reduction at 30 nmol/kg (% reduction compared to vehicle)(Day11) shown yet.
Query: Tell me measured Cumulative food intake reduction at 30 nmol/kg (% reduction compared to vehicle)(Day11) for MLC018: fusion polypeptide SEQ ID NO: 265 conjugated with Moiety A at 52K of Linker (conjugate, Moiety A conjugated at linker K52) HGEGTFTSDVSSYLEEQAAREFIAWLVRGGGGQEPGAQPGQEPGAQPGQEPGAQPGQEPGAQPGQEPGAQPGQEPGAQPGQEKGAQPGQEPGAQPGQEPGAQPGQEPGAQPARQGDHCPLGPGRCCRLHTVRASLEDLGWADWVLSPREVQVTMCIGACPSQFRAANLHAQIKTSLHRLRPDTVPAPCCVPASYNPMVLIQRTDTGVSLQTYDDLLARDCHCI please.
Response: 48.1
